target: Cytochrome P450 2D6 (Homo sapiens) (UniProt P10635); experiment: qHTS Assay for Inhibitors and Substrates of Cytochrome P450 2D6 (AID 891); conditions: recombinant CYP2D6, luciferin-ME EGE luminescence; series mostly up to 11.4 µM; also: nearly all actives have a fitted effect of over 60% in size
Sequence (P10635 whole entry, looked up): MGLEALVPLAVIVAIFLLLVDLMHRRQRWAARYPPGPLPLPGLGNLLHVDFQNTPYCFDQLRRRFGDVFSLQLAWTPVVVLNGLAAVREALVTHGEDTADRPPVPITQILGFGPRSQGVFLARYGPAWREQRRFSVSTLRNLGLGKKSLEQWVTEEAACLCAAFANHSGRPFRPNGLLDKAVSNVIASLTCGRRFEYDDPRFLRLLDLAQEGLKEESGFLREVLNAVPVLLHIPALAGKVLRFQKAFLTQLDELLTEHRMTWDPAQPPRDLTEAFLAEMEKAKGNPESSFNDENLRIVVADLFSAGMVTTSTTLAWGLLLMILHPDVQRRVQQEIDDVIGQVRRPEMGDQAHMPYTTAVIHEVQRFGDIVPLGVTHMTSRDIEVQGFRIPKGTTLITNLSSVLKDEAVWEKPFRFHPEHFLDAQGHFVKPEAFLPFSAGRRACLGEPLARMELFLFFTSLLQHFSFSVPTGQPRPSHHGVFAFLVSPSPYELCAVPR
Results filed as inconclusive are left out. Activity calls are given as the source filed them. Calls follow the shape of the dose curve; as a rule, active = well fitted inhibition curve with a large enough effect; inconclusive = small, poorly fitted or top-dose-only effect; inactive = no such curve, though single readings can be large or run the other way.
In this exercise, the only acceptable responses are t (active), f (inactive)

Before answering, review these 3 worked examples.
- Compound: "OCC1OC(/C=C\\c2ccccc2)C=CC1Oc1ccc2c(c1)OCO2 (stereo not drawn)"
  Assigned label: "t"
- Compound: "O=C(/C=C/c1ccccc1)N1CCCC1CO (stereo not drawn)"
  Assigned label: "f"
- Compound: "CCCCCCC(=O)Cc1cc(OC)c(OC)cc1/C=C(/C(C)=O)C(=O)OC"
  Assigned label: "f"

In this assay, the call recorded for CC(=O)OC[C@@H]1O[C@H](C/C=N\O[C@@H](C)CN2CCCc3nc(C)c(C)cc32)C=C[C@@H]1OC(C)=O was what?
t

Ok, now CCCCCCC1=Cc2cc(OC)c(OC)cc2C(CC(=O)/C=C/OC)O1 (stereo not drawn)
f

###

assay: qHTS assay for small molecule activators of the nuclear factor-kappa B (NF-kB) signaling pathway (AID 651749); settings: NF-kB-bla ME-180 cells, beta-lactamase FRET ratio, 16 h; hits give high values; also: % of control where 0% means no effect
Inconclusive results are not listed.
// values below are reported activation
Lab book: enter the figure in %, no units written.

Past entries and their recorded results:
- Molecule: "CCc1cccc(C)c1N(C(=O)CS(=O)(=O)O)[C@@H](C)COC"
  activation, %: -2.32
- Molecule: "CCCCC(CC)COC(=O)/C=C\\C(=O)OCC(CC)CCCC (stereo not drawn)"
  activation, %: 0.118
- Molecule: "C=C(C)C(=O)OCCCCCCCCCCCCCCCC"
  activation, %: -3.24
- Molecule: "CN(C)Cc1cc(CN(C)C)c(O)c(CN(C)C)c1"
  activation, %: -0.675
- Molecule: "CS(C)=O"
  activation, %: 0.392

Could you share which activation value was measured for CCC/C(=N\OCC)C1=C(O)CC(O)(CC(C)S(=O)(=O)CC)CC1=O (stereo not drawn) ?
-2.79

Then CCCCCCCCCCCCCCCO ?
-1.59

Now this one: Brc1ccc(Br)c(Br)c1
-0.374

Next record, please: CCCCN(CCCC)CCCC
-1.19

Next molecule up: BrC1CCC(Br)C(Br)CCC(Br)C(Br)CCC1Br (stereo not drawn)
1.45

###

tested on: DFO2036; assay: qHTS profiling for inhibitors of Plasmodium falciparum proliferation (AID 504749);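 also: 0% = DMSO vehicle and full inhibition = artemisinin control; nearly all actives have a fitted effect of over 60% in size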; conditions: P. falciparum in erythrocytes, SYBR Green DNA, 72 h; series mostly up to 28.7 µM
Records with an inconclusive call do not appear. Calls of active or inactive are those of the source. Calls follow the shape of the dose curve; as a rule, active = well fitted inhibition curve with a large enough effect; inconclusive = small, poorly fitted or top-dose-only effect; inactive = flat fitted curve, though single readings scatter.
Measured parameter: outcome

- Molecule: "NC(=O)CCC1NC(=O)C(Cc2ccccc2)NC(=O)C(Cc2ccc(O)cc2)NC(=O)CCSSCC(C(=O)N2CCCC2C(=O)NC(CCCN=C(N)N)C(=O)NCC(N)=O)NC(=O)C(CC(N)=O)NC1=O (stereo not drawn)"
  Experimental result: "inactive"
- Molecule: "CC(=O)OCC1=C(C(=O)O)N2C(=O)C(NC(=O)Cc3ccccc3)C2SC1 (stereo not drawn)"
  Experimental result: "inactive"
- Molecule: "CCOC(=O)C(CS)NCCN[C@@H](CS)C(=O)OCC (stereo partly drawn)"
  Experimental result: "inactive"
